Quick reference for Euclidean distance among some compounds
# Test system: A549
# assay-overview: Euclidean distance of Cell Painting phenotypic profile (signed KS, 77 features) to DMSO centroid (dimensionless distance); higher = stronger phenotypic change vs DMSO (phenoactivity)
# condition-label: 48 h; 5 or 10 uM (library dependent)
Structures can show the parent of a compound that is named as a salt.
Answer with a number only.

• CC(CCc1ccccc1)NC(C)C(O)c1ccc(O)cc1 (stereo not drawn) [Nylidrin Hydrochloride] = 1.2
• Cc1cccc(C(C)c2c[nH]cn2)c1C (stereo not drawn) [Medetomidine HCl] = 0.591
• Cc1sc2c(c1C)C(c1ccc(Cl)cc1)=N[C@@H](CC(=O)OC(C)(C)C)c1nnc(C)n1-2 = 2.14
• C[S+]([O-])CCCCN=C=S (stereo not drawn) = 1.68
• C=C1[C@@H](C)[C@H]2[C@H](Cc3ccccc3)NC(=O)[C@]23[C@H](OC(C)=O)/C=C/[C@@](C)(O)C(=O)[C@@H](C)C/C=C/[C@H]3[C@@H]1O = 3.63
• CC(=O)Nc1ccc(Cc2ccc(NC(C)=O)cc2)cc1 = 2.27
• CN1[C@@H]2CC(O)C[C@H]1[C@@H]1O[C@@H]12 (stereo partly drawn) [Scopine HCl] = 0.885

Next compound, please.
What value of Euclidean distance has been reported for the following compound? C[C@@H]1O[C@@H](O[C@H]2C[C@@H](O)[C@]3(CO)[C@H]4[C@H](O)C[C@]5(C)[C@@H](C6=CC(=O)OC6)CC[C@]5(O)[C@@H]4CC[C@]3(O)C2)[C@H](O)[C@H](O)[C@H]1O
6.03

###

Quick reference for Euclidean distance among some compounds
# Test system: HEPG2
# assay-overview: Euclidean distance of Cell Painting phenotypic profile (signed KS, 77 features) to DMSO centroid (dimensionless distance); higher = stronger phenotypic change vs DMSO (phenoactivity)
# condition-label: 48 h; 5 or 10 uM (library dependent)
Counter-ions that a name gives are not always drawn.
Answer with a number only.

Answered examples (5):
* COC(=O)C1=CCCN(C)C1 | 0.958
* CCOC(=O)Nc1ccc(NCc2ccc(F)cc2)cc1N [Retigabine 2HCl] | 0.601
* CNCC(O)c1ccc(O)cc1 (stereo not given) [Synephrine HCl] | 0.371
* CCCN1C[C@H](CSC)C[C@@H]2c3cccc4[nH]cc(c34)C[C@H]21 [Pergolide Mesylate] | 0.589
* COc1ccc(OC)c(C(O)C(C)N)c1 (stereo not given) [Methoxamine HCl] | 0.595

What value of Euclidean distance has been reported for the following compound? CCCCCc1cc(O)cc(O)c1
0.393

Queued: NCC1(CC(=O)O)CCCCC1 [Gabapentin HCl]
0.483

Queued: Cc1ccc(/N=C/N(C)/C=N/c2ccc(C)cc2C)c(C)c1
0.47

Queued: CN1[C@@H]2CC[C@H]1C[C@@H](OC(=O)C(CO)c1ccccc1)C2 (stereo not given in full) [Atropine sulfate]
0.473

Queued: CN1[C@@H]2C[C@@H](OC(=O)[C@H](CO)c3ccccc3)C[C@H]1[C@@H]1O[C@@H]12
0.391

###

Quick reference for Euclidean distance among some compounds
# Test system: 786-O
# assay-overview: Euclidean distance of Cell Painting phenotypic profile (signed KS, 77 features) to DMSO centroid (dimensionless distance); higher = stronger phenotypic change vs DMSO (phenoactivity)
# condition-label: 48 h; 5 or 10 uM (library dependent)
Counter-ions that a name gives are not always drawn.
Answer with a number only.

- COc1cc(-n2c(=S)[nH]c3ccccc3c2=O)c(Cl)cc1Cl: 1.11
- CN1[C@H]2C[C@H](OC(=O)[C@H](CO)c3ccccc3)C[C@@H]1[C@@H](O)C2 [Anisodamine Hydrobromide]: 0.645
- O=C(O[C@H]1C[N+]2(CCCOc3ccccc3)CCC1CC2)C(O)(c1cccs1)c1cccs1 [Aclidinium Bromide]: 1.15

Next compound, please.
What value of Euclidean distance has been reported for the following compound? O=C1CC[C@@]2(O)[C@H]3Cc4ccc(O)c5c4[C@@]2(CCN3CC2CC2)[C@H]1O5 [Naltrexone HCl]
1.26
